Please respond with reported IC50 for every item in the list.
Biological target: CDK2 (Homo sapiens)
Construct: High-Throughput Measurement of Cellular Endogenous CDK2; endogenous in cells; host or cells: OVCAR3
Experiment: Inhibition of CDK2: phospho-Rb (S807/811) HTRF measurement in OVCAR3 cells, 24 h
Assay type: cell-based
Conditions: 24 h compound treatment, read-out: pRB_OVCAR3_24h

// solved cases for IC50 follow
CC(Cc1cccc(S(=O)(=O)N2CCC(Nc3ncc(Cl)cn3)CC2)c1)CN1CCN(c2cc3c(cc2F)C(=O)N(C2CCC(=O)NC2=O)C3)CC1 (stereo not drawn) [Example 97]; 500 to 2500 nM
Cn1nc(N2CCC(=O)NC2=O)c2ccc(C3CCN(C[C@@H]4CCCN4c4cc(S(=O)(=O)N5CCC(Nc6ncc(OC(F)F)cn6)CC5)ccc4C#N)CC3)cc21 [Example 256]; 100 to 500 nM

**Query** Given the compound Cn1nc(N2CCC(=O)NC2=O)c2ccc(N3CCN(CC4CCN(c5cccc(S(=O)(=O)N6CCC(Nc7ncc(Cl)cn7)CC6)c5)CC4)CC3(C)C)cc21 [Example 159] , what is its reported IC50?
**Result** 100 to 500 nM
